MEASUREMENT NOTES: in vivo
Parameters: species or system mice
CONDITION DESCRIPTION: mouse, im, 10 mg/kg
Counter-ions that a name gives are not always drawn.
Recorded concentration at 1.5 h by entry
Respond numerically; units are ng/mL and should not be typed.

N[C@@H](C(=O)N[C@@H]1C(=O)N2C(C(=O)O)=C(CSc3c[nH]nn3)CS[C@H]12)c1ccc(O)cc1 [BL-S640 Sesquihydrate] = 6800

[ask] What does the data say about its concentration at 1.5 h? Entry: Cc1nnc(SCC2=C(C(=O)O)N3C(=O)[C@@H](NC(=O)Cn4cnnn4)[C@H]3SC2)s1 [Cefazolin, Na salt, sodium cefazolin, reference compound]
[reply] 2900
